- targetOfAssay: T1, guinea pig IGF-I receptor (guinea pig, UniProt P08069 31-1367 (human entry))
- T1 construct: Whole entry as named; expressed on HEK293T cells; also called IGF-I receptor of guinea pig; XP_003475316
- T1 sequence (P08069 other isoform, or with tags, fused parts or gaps limits assumed): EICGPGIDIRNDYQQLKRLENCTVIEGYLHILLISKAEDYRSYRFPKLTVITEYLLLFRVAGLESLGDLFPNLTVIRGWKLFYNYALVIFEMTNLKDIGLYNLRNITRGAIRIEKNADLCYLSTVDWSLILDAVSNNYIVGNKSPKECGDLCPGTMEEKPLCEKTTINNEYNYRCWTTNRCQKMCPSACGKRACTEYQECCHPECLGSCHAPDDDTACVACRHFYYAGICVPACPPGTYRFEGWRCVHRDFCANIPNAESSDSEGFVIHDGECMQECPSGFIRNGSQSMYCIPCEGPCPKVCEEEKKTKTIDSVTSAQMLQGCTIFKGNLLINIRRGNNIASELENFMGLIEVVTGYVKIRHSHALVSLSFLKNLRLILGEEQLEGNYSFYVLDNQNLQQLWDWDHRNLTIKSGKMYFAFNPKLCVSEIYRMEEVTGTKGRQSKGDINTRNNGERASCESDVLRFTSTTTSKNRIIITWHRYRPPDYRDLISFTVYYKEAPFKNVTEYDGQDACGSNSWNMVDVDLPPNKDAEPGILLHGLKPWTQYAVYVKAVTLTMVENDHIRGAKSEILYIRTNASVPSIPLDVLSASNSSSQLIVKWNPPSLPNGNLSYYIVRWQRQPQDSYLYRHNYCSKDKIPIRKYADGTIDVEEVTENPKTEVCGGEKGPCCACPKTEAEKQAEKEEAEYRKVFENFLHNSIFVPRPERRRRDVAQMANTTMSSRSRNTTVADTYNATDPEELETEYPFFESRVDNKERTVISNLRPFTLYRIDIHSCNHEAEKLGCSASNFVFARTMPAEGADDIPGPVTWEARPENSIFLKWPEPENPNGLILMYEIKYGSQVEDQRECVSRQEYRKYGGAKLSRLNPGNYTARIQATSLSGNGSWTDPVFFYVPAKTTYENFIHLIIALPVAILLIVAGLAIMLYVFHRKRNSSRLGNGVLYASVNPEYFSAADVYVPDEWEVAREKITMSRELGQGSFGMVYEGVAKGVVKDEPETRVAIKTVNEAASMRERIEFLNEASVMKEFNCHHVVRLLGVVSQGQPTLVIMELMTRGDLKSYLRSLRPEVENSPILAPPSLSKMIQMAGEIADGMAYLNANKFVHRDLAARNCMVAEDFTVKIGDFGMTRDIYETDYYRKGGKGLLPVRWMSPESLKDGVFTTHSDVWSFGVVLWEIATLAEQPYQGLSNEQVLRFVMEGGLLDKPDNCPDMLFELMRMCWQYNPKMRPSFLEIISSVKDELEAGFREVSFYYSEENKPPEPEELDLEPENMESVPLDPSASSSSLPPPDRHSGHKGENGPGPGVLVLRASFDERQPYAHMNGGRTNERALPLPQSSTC
- assayDetails: cell-based ELISA, 2 nM antibody on HEK293T cells expressing the receptor, A450-A650
readoutName: Avidity (relative to control HEK293T cells = 1)

INSERT INTO measurements (binder, testresult) VALUES
  ('anti-IGF-I receptor humanized antibody R11-16F (antibody, human IgG4, V domains shown, also called R11-16F antibody; R11-16VH + R11-16VL-C36) VH: QVQLVQPGAELVKPGASVKVSCKAPGYTFTSYWMHWVRQAPGQGLEWIGETNPSNSVTNYNEKFKSKATLTVDTSTSTVYMELSSLRSEDTAVYYCTIGRGRGFAYWGQGTLVTVSS VL: DIQMTQSPSSLSASVGDRVTITCRASQNINFWLSWCQQKPGKAPKLLIYKASNLHTGVPSRFSGSGSGTDFTFTISSLQPEDIATYYCLQGQSYPYTFGQGTKLEIK', '3.3 fold of control cells');
